- System: muMax20 (Max(13-93) K31hArg/K57hArg, M65Nle)
- Assay: PBM 8-mer E-score (E-score (rank enrichment, -0.5 to 0.5)); higher = stronger preferential binding
The full ranking holds about 33,000 sequences; the median of “E-score (rank enrichment, -0.5 to 0.5)” is about -0.0068, and the highest 2% start at about 0.24. Only a selection was taken, and the highest values are over-represented in it overall.
Readout Label: PBM 8-mer E-score
Numbers only.

AACAATAT ... 0.207

Lab note: each sequence below needs its PBM 8-mer E-score filled in.
1. AGATGTGG
2. CACAATAC
3. AACAATAA
4. AGCAACAA
5. CAATCGCG
6. AGATGTGA
7. CGATGTGA

Output:
1. -0.0064
2. 0.126
3. 0.247
4. -0.0639
5. -0.0427
6. 0.11
7. -0.012

* * *

- Tested on: muMax20 (Max(13-93) K31hArg/K57hArg, M65Nle)
- Assay: PBM 8-mer E-score (E-score (rank enrichment, -0.5 to 0.5)); higher = stronger preferential binding
Over roughly 33,000 sequences, “E-score (rank enrichment, -0.5 to 0.5)” has its median near -0.0068; the highest 2% begin near 0.24. Many of the other results were omitted from the sample, so the highest values are more common in it than they were.
Readout Label: PBM 8-mer E-score
Give bare numbers.

Solved entries:
ATTGACTA ... -0.0128
AAGTCACT ... 0.24

Lab note: each sequence below needs its PBM 8-mer E-score filled in.
1. CTATATAG
2. AATCAGCG
3. ATAGTAGG

Output:
1: 0.134; 2: -0.0368; 3: 0.0443

Lab note: each sequence below needs its PBM 8-mer E-score filled in.
1. CATAGCAC
2. CCCGGTCA
3. ATTATTTA
4. GTTATAAA

Output:
1. 0.258
2. -0.139
3. 0.256
4. 0.239

Lab note: each sequence below needs its PBM 8-mer E-score filled in.
1. ATATGGTA
2. CTGTAATA

Output:
1: 0.217; 2: 0.175

Lab note: each sequence below needs its PBM 8-mer E-score filled in.
1. GATATTTA
2. CTGTAAAA
3. ATAGTAGA
4. ATGGTAAC

Output:
0.104
0.0545
0.253
0.26

* * *

- Test system: muMax20 (Max(13-93) K31hArg/K57hArg, M65Nle)
- Assay: PBM 8-mer E-score (E-score (rank enrichment, -0.5 to 0.5)); higher = stronger preferential binding
In all, about 33,000 sequences were measured (“E-score (rank enrichment, -0.5 to 0.5)”: median about -0.0068, highest 2% from about 0.24 on). The sample holds the highest values, similar sequences and a random draw of the others, so the mix is not that of the screen.
Rule: PBM 8-mer E-score under -0.02 gives class 0, otherwise class 1.

Below are worked cases with known answers.
CAATACAC ... class 1
CAAAGCTC ... class 0
AGTCGTGC ... class 0
ATAAAAAC ... class 1
CTATAAGA ... class 1

We now examine a further sequence.
Input: Would you say "ATATAAAG" shows PBM 8-mer E-score at minimum -0.02?
Output: class 1

* * *

I'd be grateful if you could share measured PBM 8-mer E-score for these entries.
- System: muMax20 (Max(13-93) K31hArg/K57hArg, M65Nle)
- Assay: PBM 8-mer E-score (E-score (rank enrichment, -0.5 to 0.5)); higher = stronger preferential binding
The full ranking holds about 33,000 sequences; the median of “E-score (rank enrichment, -0.5 to 0.5)” is about -0.0068, and the highest 2% start at about 0.24. What follows is part of a selection rich in the highest values, with near analogues and random picks from the rest.

ACGTGGTG ... 0.336

Lab note: each sequence below needs its PBM 8-mer E-score filled in.
1. CTTATATC
2. GAGGAGCC
3. ATAATTAG

Output:
0.137
-0.1
0.223

Lab note: each sequence below needs its PBM 8-mer E-score filled in.
1. CACGTTTA
2. TCAAGAAA
3. ACGAAGCG
4. GTAGACTA
5. ATGATTAA

Output:
1. 0.0929
2. 0.103
3. -0.0243
4. -0.0707
5. 0.169

Lab note: each sequence below needs its PBM 8-mer E-score filled in.
1. ACGTGGTA
2. GCGATTAA

Output:
[0.309, 0.14]

Lab note: each sequence below needs its PBM 8-mer E-score filled in.
1. ATAACACC
2. CCGTGGTA
3. ATTAGATA
4. AATATATC
5. ATTATATC

Output:
1. 0.134
2. -0.0136
3. 0.262
4. 0.0912
5. 0.247

Lab note: each sequence below needs its PBM 8-mer E-score filled in.
1. AAGATGTG
2. CTCTGCTA
3. TCGATTAA
4. AAAACAGT

Output:
1: 0.128; 2: -0.193; 3: 0.261; 4: 0.252

Lab note: each sequence below needs its PBM 8-mer E-score filled in.
1. ATAACATG
2. GCCCTACA
3. CGAATTAA

Output:
1. 0.199
2. -0.127
3. 0.106

Lab note: each sequence below needs its PBM 8-mer E-score filled in.
1. CAGTGGCC
2. TGCGAACA
3. AAAACAAT

Output:
1: -0.25; 2: 0.109; 3: 0.265

Lab note: each sequence below needs its PBM 8-mer E-score filled in.
1. GGAATTAA
2. AACACGGG

Output:
[0.2, 0.0469]

The measured values listed here are drawn from the supplement of paper PMC12636033.
